Test: In vitro inhibition of cytopathic effect was determined against HIV-1 IIIB in MT-4 cells using MTT cytoprotection assay
Conditions: MT4
Kindly state EC50 for each of the entries shown.

Endpoint output: EC50 of CC(C)CCCC(C)[C@H]1CC[C@H]2[C@@H]3CCC4C[C@@H](CCC=C(c5cc(Cl)c(OCc6ccccc6C(=O)O)c(C(=O)O)c5)c5cc(Cl)c(OCc6ccccc6C(=O)O)c(C(=O)O)c5)CC[C@]4(C)[C@H]3CC[C@]12C (some centres undefined) . Value? > 37 µM

Endpoint output: EC50 of CC(C)CCCC(C)[C@H]1CC[C@H]2[C@@H]3CCC4C[C@@H](CCC=C(c5cc(Cl)c(O)c(C(=O)N[C@@H](Cc6ccccc6)C(=O)O)c5)c5cc(Cl)c(O)c(C(=O)N[C@@H](Cc6ccccc6)C(=O)O)c5)CC[C@]4(C)[C@H]3CC[C@]12C (some centres undefined) . Value? > 62 µM

Endpoint output: EC50 of CC(C)CCCC(C)[C@H]1CC[C@H]2[C@@H]3CCC4C[C@@H](CCC=C(c5cc(Cl)c(OCc6ccc(-c7ccc(C(=O)O)cc7)cc6)c(C(=O)O)c5)c5cc(Cl)c(OCc6ccc(-c7ccc(C(=O)O)cc7)cc6)c(C(=O)O)c5)CC[C@]4(C)[C@H]3CC[C@]12C (some centres undefined) . Value? > 100 µM

Endpoint output: EC50 of CC(C)CCCC(C)[C@H]1CC[C@H]2[C@@H]3CCC4C[C@@H](CCC=C(c5cc(Cl)c(O)c(C(=O)NCC(=O)OC(C)(C)C)c5)c5cc(Cl)c(O)c(C(=O)NCC(=O)OC(C)(C)C)c5)CC[C@]4(C)[C@H]3CC[C@]12C (some centres undefined) . Value? > 125 µM

The values you see were collected from ChEMBL document CHEMBL1134356.
